# Test system: TNFα production
# Experiment Description: Inhibitory activity of the TNFα production in PMA/polyinosic acid-stimulated THP-1 cells (ELIZA kit)
# Type: cell-based, human (THP-1 cells)
# Particulars: Homo sapiens, PMA 2 μg/ml and polyinosic acid 200 μg/ml, 22 hours
Measured Endpoint: pIC50
Please keep in mind that pIC50 is minus log10 of the molar concentration; only the number is needed.

Check out these entries, answers already filled in.
# Compound, pIC50
data = [
    ("O=C(C#Cc1ccccc1)N1CCN(C(=O)C#Cc2ccccc2)C1=O", 6.30),
    ("O=C(C#Cc1ccccc1)N(C(=O)c1ccccc1)c1ccc(F)cc1F", 5.52),
    ("CC(=O)N(Cc1ccco1)C(=O)C#Cc1ccccc1", 5.36),
    ("O=C(C#Cc1ccccc1)N1CCCC1=O", 6.00),
    ("CC(=O)NC(=O)C#Cc1ccccc1", 5.74),
    ("O=C(C#Cc1ccccc1)N1CCOC1=O", 5.92),
    ("CC(=O)N(CCN(C)C)C(=O)C#Cc1ccccc1", 5.43),
    ("O=C(C#Cc1ccccc1)N1CCCCCC1=O", 5.68),
    ("O=C(C#Cc1ccccc1)N1CCNC1=O", 6.30),
    ("CCN(C(C)=O)C(=O)C#Cc1ccccc1", 5.36),
]

Q: Would you mind telling me what pIC50 value was observed for CCN(C(=O)C#Cc1ccccc1)C(=O)Cc1ccccc1Cl ?
Ans: 5.89

Q: Let us now turn to N#Cc1ccc(C#CC(=O)N2CCOC2=O)cc1
Ans: 5.68

Q: Follow-up entry: O=C(C#Cc1ccccc1)N(Cc1ccc(F)cc1)C(=O)c1ccccc1
Ans: 4.82

Q: Follow-up item: CC(=O)N(C(=O)C#Cc1ccccc1)c1ccc2c(c1)OCO2
Ans: 5.77

Q: Further, for CC(=O)N(C(=O)C#Cc1ccccc1)c1ccccn1 ?
Ans: 4.85
